# Test system: CAKI-1 renal
# Procedure text: NCI tumour cell line growth inhibition, 48 h
# TGI per record follows
Readout: TGI (µM)

Molecule	Target system	Output unit	Value prefix	Readout value
NNC(=O)CNc1cccc(Br)c1	CAKI-1 renal	µM	>	100
CCN1CN(c2ccccc2)C2(CCN(CC3COc4ccccc4O3)CC2)C1=O (stereo unspecified)	CAKI-1 renal	µM	>	100
O=C(Cc1ccc(F)c(Cl)c1)Nc1cc(C2(C(F)(F)F)CC2)nn1CC1CCCCC1	CAKI-1 renal	µM	=	8.79
O=C(c1ccco1)c1c(C(F)(F)F)nc2ccc(Cl)cc2[n+]1[O-]	CAKI-1 renal	µM	=	85.8
O=C(Nc1ccc(Br)cc1F)c1cc(Cl)ccc1O	CAKI-1 renal	µM	=	2.85
O=C(O)CN1CCN2CCCCCN(CC1)CCN(CC(=O)O)CC2	CAKI-1 renal	µM	>	100
